assay summary: Photostability of avobenzone in combination with solvents (UV absorbance profile before and after 10 MED radiation)
Format: physicochemical
condition summary: avobenzone with the solvent; 10 MED radiation, solar simulator; UV absorbance 290-400 nm on PMMA plates
result type: Stability of Avobenzone

Example molecules with recorded Stability of Avobenzone:
molecule: O=C(OCCCc1ccccc1)c1ccccc1 [3-Phenylpropyl Benzoate]
Stability of Avobenzone: stable
//
molecule: Cc1cccc(C(=O)OCc2ccccc2)c1 [Benzyl m-toluate]
Stability of Avobenzone: not stable
//
molecule: O=C(OCCc1ccccc1)c1ccccc1 [Phenethyl benzoate]
Stability of Avobenzone: stable
//
molecule: CC(C)(C)c1ccc(C(=O)OCc2ccccc2)cc1 [Benzyl 4-tert-Butylbenzoate]
Stability of Avobenzone: not stable
//
molecule: CCC(=O)OCCc1ccccc1 [2-Phenylethyl Propionate]
Stability of Avobenzone: not stable

I am curious: what Stability of Avobenzone value has been reported for Cc1ccccc1C(=O)OCc1ccccc1 [Benzyl o-toluate] ?
stable

Please give the result for Cc1ccccc1C(=O)OC1CCCCC1 [Cyclohexyl o-toluate] too.
not stable

Ok, now O=C(OCCc1ccccc1)C1CCCCC1 [2-Phenylethyl Cyclohexanoate]
not stable
